The next entries give measured pKi for human μ opiate receptor (Homo sapiens).
In simple prose, pKi is minus the logarithm base ten of a concentration in moles per litre.

• CN(C)C1(Cc2ccccc2)CCC2(CCNC2=O)CC1 (single isomer, unassigned) [Example 1] = 5.97
• CN1CCC2(CCC(Cc3ccccc3)(N(C)C)CC2)C1=O (stereo not shown) [Example 118] = 5.26
• CN(C)C1(Cc2ccccc2)CCC2(CCNC2)CC1 (single isomer, unassigned) [Example 4] = 6.04

So the reported pKi for CN1CC2(CCC(C3CCCC3)(N(C)C)CC2)CC1=O (stereo not shown) , on human μ opiate receptor (Homo sapiens), turned out to be 6.53

---

The next entries give measured pKi for human μ opiate receptor (Homo sapiens, UniProt P35372).
In simple prose, pKi is minus the logarithm base ten of a concentration in moles per litre.

Below, 7 molecules whose answers are already recorded.
- CN1CCC2(CCC(Cc3ccccc3)(N(C)C)CC2)C1 (single isomer, unassigned) [Example 6]: 5.96
- CN(C)C1(CC2CCCCC2)CCC2(CCNC2=O)CC1 (centres unmarked) [Example 92]: 2.45
- CN1CCC2(CCC(Cc3ccccc3)(N(C)C)CC2)C1=O (centres unmarked) [Example 119]: 5.45
- CN(C)C1(Cc2ccccc2)CCC2(CCNC2=O)CC1 (single isomer, unassigned) [Example 2]: 5.32
- CN1CCC2(CCC(Cc3ccccc3)(N(C)C)CC2)C1 (single isomer, unassigned) [Example 5]: 5.84
- CN(C)C1(Cc2ccccc2)CCC2(CCNC2)CC1 (single isomer, unassigned) [Example 3]: 5.74
- CCCCN1CCC2(CCC(C(=O)c3ccccc3)(N(C)C)CC2)C1 (single isomer, unassigned) [Example 107]: 6.02

// field: pKi; key: CN(C)C1(C2CCCC2)CCC2(CCN(C(=O)C3COC3)C2)CC1 (centres unmarked) [Example 291] ; value = 6.76
